These measurements were taken from patent US6369246B2.

System: iron-induced lipid peroxidation in rat brain homogenates
Experiment: Lipid peroxidation assay (TBA)
Assay type: biochemical, Wistar rats
Conditions: 10 μM compound, ferrous ion 200 μM, 37° C. 30 min
outcomeMeasure: % Inhibition (10 μM), relative percentage of inhibition (%)

• O=C(Oc1c2cccc(Cl)c2cc2cccc(Cl)c12)c1cccc(Cl)c1 = 30.6
• Cc1ccccc1C(=O)Oc1c2cccc(Cl)c2cc2cccc(Cl)c12 = 23.0
• O=C(CBr)Oc1c2cccc(Cl)c2cc2cccc(Cl)c12 = 100
• O=C(Oc1c2cccc(Cl)c2cc2cccc(Cl)c12)c1ccccc1 = 14.0
• CC(C)C(=O)Oc1c2cccc(Cl)c2cc2cccc(Cl)c12 = 28.6
• O=C(CCCBr)Oc1c2cccc(Cl)c2cc2cccc(Cl)c12 = 100
• CCC(=O)Oc1c2cccc(Cl)c2cc2cccc(Cl)c12 = 100
• O=C(CCc1ccccc1)Oc1c2cccc(Cl)c2cc2cccc(Cl)c12 = 36.6
• CCCC(=O)Oc1c2cccc(Cl)c2cc2cccc(Cl)c12 = 17.7
• O=C(Oc1c2cccc(Cl)c2cc2cccc(Cl)c12)C(Cl)Cl = 100
• CCCCCC(=O)Oc1c2cccc(Cl)c2cc2cccc(Cl)c12 = 17.2
• O=C(Oc1c2cccc(Cl)c2cc2cccc(Cl)c12)c1ccc(Cl)cc1Cl = 16.0
• Cc1c(C)c2c(c(C)c1O)CC[C@@](C)(CCC[C@H](C)CCC[C@H](C)CCCC(C)C)O2 [(+)-a-Tocopherol, reference compound] = 100
• O=C(CCl)Oc1c2cccc(Cl)c2cc2cccc(Cl)c12 = 100
